Biological target: panel of 442 kinases (Homo sapiens, UniProt Q09013)
Construct: purchased Ambit Biosciences (scanMAXX KINOMEscan)
Sequence (Q09013 1-629): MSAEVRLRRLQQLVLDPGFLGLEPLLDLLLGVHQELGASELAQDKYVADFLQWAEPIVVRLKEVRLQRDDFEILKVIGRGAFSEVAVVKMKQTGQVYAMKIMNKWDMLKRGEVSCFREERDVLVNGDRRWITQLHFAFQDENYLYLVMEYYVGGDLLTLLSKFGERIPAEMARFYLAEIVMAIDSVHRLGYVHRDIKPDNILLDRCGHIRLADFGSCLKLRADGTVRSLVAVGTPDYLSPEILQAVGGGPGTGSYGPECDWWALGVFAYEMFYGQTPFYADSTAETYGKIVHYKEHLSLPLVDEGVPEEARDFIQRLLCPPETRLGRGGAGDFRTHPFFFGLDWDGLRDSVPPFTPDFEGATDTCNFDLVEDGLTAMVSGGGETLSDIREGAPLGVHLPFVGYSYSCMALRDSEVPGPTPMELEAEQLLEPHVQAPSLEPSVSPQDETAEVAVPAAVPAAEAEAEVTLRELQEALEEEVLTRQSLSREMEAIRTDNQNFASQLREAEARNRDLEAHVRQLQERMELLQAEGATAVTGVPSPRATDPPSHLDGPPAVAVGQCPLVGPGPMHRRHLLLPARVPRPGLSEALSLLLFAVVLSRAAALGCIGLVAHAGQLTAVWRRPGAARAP
Test: biochemical
Format: binding
Conditions: DMPK; 1 µM; read-out: % of control at 1 µM
readoutKind: remaining activity at 1 µM (%)
Answer format: numeric, % implied, no suffix.

- FC(F)c1nc2ccccc2n1-c1nc(N2CCOCC2)nc(N2CCOCC2)n1: 100
- Cn1c(=O)n(-c2ccc(C(C)(C)C#N)cc2)c2c3cc(-c4cnc5ccccc5c4)ccc3ncc21: 88
- COc1ncc(-c2ccc3nccc(-c4ccnnc4)c3c2)cc1NS(=O)(=O)c1ccc(F)cc1F: 100

Could you now consider this next compound?
Exam item: Please state recorded remaining activity at 1 µM (tested on panel of 442 kinases (Homo sapiens, UniProt Q09013)) of `Nc1cc(C(F)(F)F)c(-c2cc(N3CCOCC3)nc(N3CCOCC3)n2)cn1`
Marked response: 79

====

Target: panel of 442 kinases (Homo sapiens)
Construct: purchased Ambit Biosciences (scanMAXX KINOMEscan)
Assay: biochemical
Format: binding
Settings: kinase MARK1; 1 µM; read-out: % of control at 1 µM
Readings of remaining activity at 1 µM for the listed compounds
Write down the numeric answer in % and omit the unit.

Worked cases, answers included:
- Cn1c(=O)n(-c2ccc(C(C)(C)C#N)cc2)c2c3cc(-c4cnc5ccccc5c4)ccc3ncc21 [Dactolisib]: 82
- FC(F)c1nc2ccccc2n1-c1nc(N2CCOCC2)nc(N2CCOCC2)n1 [ZSTK474]: 98
- COc1ncc(-c2ccc3nccc(-c4ccnnc4)c3c2)cc1NS(=O)(=O)c1ccc(F)cc1F [Omipalisib]: 100

Now, please, on to the next compound.
Exam item: Report remaining activity at 1 µM for Nc1cc(C(F)(F)F)c(-c2cc(N3CCOCC3)nc(N3CCOCC3)n2)cn1 [Buparlisib] please.
Marked response: 100

====

Target: panel of 442 kinases (Homo sapiens)
Construct: purchased Ambit Biosciences (scanMAXX KINOMEscan)
Test: biochemical
Assay type: binding
Settings: kinase RIPK1; 1 µM; read-out: RIPK1 (% of control at 1 µM)
readoutKind: remaining activity at 1 µM

Some solved entries appear below for comparison.
• Nc1cc(C(F)(F)F)c(-c2cc(N3CCOCC3)nc(N3CCOCC3)n2)cn1 = 100%
• COc1ncc(-c2ccc3nccc(-c4ccnnc4)c3c2)cc1NS(=O)(=O)c1ccc(F)cc1F = 78%
• FC(F)c1nc2ccccc2n1-c1nc(N2CCOCC2)nc(N2CCOCC2)n1 = 98%

# context switch: different molecule, same remaining activity at 1 µM
Exam item: Item `Cn1c(=O)n(-c2ccc(C(C)(C)C#N)cc2)c2c3cc(-c4cnc5ccccc5c4)ccc3ncc21` with panel of 442 kinases (Homo sapiens) - remaining activity at 1 µM?
Marked response: 91%
